Tested on: MKNK1;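 further: KINOMEscan kinase panel screen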
Condition context: concentration: 1 μM,replicates: in singlicate; n = 1
Respond with MET for %Inh values of 10% and above, NOT MET for values below.

>>> discrete_label("CCN(CC)CCCCNc1ncc2cc(-c3c(Cl)cccc3Cl)c(NC(=O)NC(C)(C)C)nc2n1")
"NOT MET"
>>> discrete_label("CC(C)N1C(=O)Cc2cc(Nc3ncc(C(F)(F)F)c(NCc4cccc(S(C)(=O)=O)c4)n3)ccc21")
"NOT MET"
>>> discrete_label("CCN(CC)CCOc1ccc(Nc2ncc3cc(-c4c(Cl)cccc4Cl)c(=O)n(C)c3n2)cc1")
"MET"
>>> discrete_label("Cc1n[nH]c2ccc(-c3cc(OC[C@@H](N)Cc4ccccc4)cnc3-c3ccoc3)cc12.O=C(O)C(F)(F)F.O=C(O)C(F)(F)F")
"NOT MET"
>>> discrete_label("Cc1cc(C(=O)Nc2ccc(Oc3ccc4nc(NC(=O)C5CC5)cn4n3)cc2)nn1-c1ccccc1")
"NOT MET"
>>> discrete_label("C[C@@H]1CCN(C(=O)CC#N)C[C@@H]1N(C)c1ncnc2[nH]ccc12")
"NOT MET"
>>> discrete_label("Cc1cc2cn[nH]c2cc1-c1cccc2c(N)c(C(N)=O)nnc12")
"MET"
>>> discrete_label("COc1ccc(C[C@@H](CN)NC(=O)c2cc(Br)c(-c3ccnc4[nH]ccc34)s2)cc1.Cl.Cl")
"MET"

Values compiled from paper PMC5540273.
